target: UniProtKB P40763; experiment: Inhibitory concentration against signal transducer and activator of transcription 3 (stat3) by (EMSA) electrophoretic mobility shift assay
Sequence (P40763 whole entry): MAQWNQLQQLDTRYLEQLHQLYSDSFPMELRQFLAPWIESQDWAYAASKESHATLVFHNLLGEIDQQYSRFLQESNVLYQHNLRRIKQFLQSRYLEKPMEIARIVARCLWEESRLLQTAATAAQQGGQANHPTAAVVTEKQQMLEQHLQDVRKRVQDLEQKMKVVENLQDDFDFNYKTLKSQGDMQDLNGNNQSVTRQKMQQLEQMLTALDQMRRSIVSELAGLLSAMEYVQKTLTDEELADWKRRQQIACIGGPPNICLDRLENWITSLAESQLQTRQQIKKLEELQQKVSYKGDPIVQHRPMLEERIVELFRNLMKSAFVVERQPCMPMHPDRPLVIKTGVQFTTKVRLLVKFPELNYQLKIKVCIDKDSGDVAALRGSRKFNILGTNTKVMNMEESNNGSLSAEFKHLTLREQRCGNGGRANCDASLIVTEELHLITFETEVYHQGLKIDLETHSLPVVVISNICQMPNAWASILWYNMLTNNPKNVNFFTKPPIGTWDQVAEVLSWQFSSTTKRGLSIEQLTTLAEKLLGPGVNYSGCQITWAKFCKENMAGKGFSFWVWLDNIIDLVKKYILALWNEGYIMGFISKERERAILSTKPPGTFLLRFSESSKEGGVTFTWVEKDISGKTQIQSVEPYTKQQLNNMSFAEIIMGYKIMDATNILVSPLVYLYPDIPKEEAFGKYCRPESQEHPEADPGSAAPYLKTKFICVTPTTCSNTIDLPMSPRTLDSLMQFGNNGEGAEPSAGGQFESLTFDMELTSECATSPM
Square brackets hold non-standard residues; d marks the D form. Peptide text beside a SMILES is read from it. pY = N[C@@H](Cc1ccc(OP(=O)(O)O)cc1)C(=O)O
Observation type: IC50 (µM)
Enter your answer as a number in µM; do not include the unit.

Compound: CC(=O)N[C@@H](Cc1ccc(OP(=O)(O)O)cc1)C(=O)N[C@@H](CC(C)C)C(=O)N1CCC[C@H]1C(=O)N[C@@H](CCC(N)=O)C(N)=O (Ac-[pY]LPQ-NH2)
Value reported: 1

For the compound "CC(=O)N[C@@H](Cc1ccc(OP(=O)(O)O)cc1)C(=O)N[C@@H](CC(C)C)C(=O)N1CCC[C@H]1C(=O)N[C@@H](CCC(N)=O)C(=O)N[C@H](C(N)=O)[C@@H](C)O" , the measured IC50 on UniProtKB P40763 was 0.6
